- testedSystem: SF-1 (Homo sapiens, UniProt Q13285)
- Construct: NCI-H295R SF-1-HiBiT cells with HiBiT tag knocked in at the endogenous SF1 locus; host or cells: NCI-H295R SF-1-HiBiT (knock-in at endogenous locus)
- protocolNotes: SF1 degradation induction in NCI-H295R SF-1-HiBiT cells (HiBiT DC50)
- Format: cell-based
- experimentalConditions: 24 hr, concentration that induces 50% degradation of SF-1
DC50 values for the molecules below.
Write it as a number; the unit nM goes unstated.

Guide cases for DC50, answers given:
molecule: COc1ccc([C@]2(CCN(Cc3ccc(OC4CC5(CCN(CC(=O)N6CCn7c(=O)n(C8CCC(=O)NC8=O)c8cccc6c87)CC5)C4)cc3)CC(C)(C)C(F)(F)F)CCOC(C)(C)C2)cc1 (stereo partly drawn)
propertyMeasured: DC50
quantitativeResult: 12
//
molecule: COc1ccc([C@]2(CCN(Cc3ccc(C4=CC[C@H](C(=O)N5CCC(Nc6ccc7c(c6F)n(C)c(=O)n7C6CCC(=O)NC6=O)CC5)CC4)c(F)c3)CC(C)(C)C(F)(F)F)CCOC(C)(C)C2)cc1 (stereo partly drawn)
propertyMeasured: DC50
quantitativeResult: 7.1

-- ask Record request: DC50 value, item Cn1c(=O)n(C2CCC(=O)NC2=O)c2ccc(C(=O)N3CCN(CC4CC=C(c5ccc(CN(CC[C@@]6(c7ccc(OC(F)F)cc7)CCOC(C)(C)C6)CC(C)(C)C(F)(F)F)cc5)CC4)CC3)cc21 (stereo partly drawn)
-- reply 7.3

###

- testedSystem: SF-1 (Homo sapiens)
- Construct: NCI-H295R SF-1-HiBiT cells with HiBiT tag knocked in at the endogenous SF1 locus; host or cells: NCI-H295R SF-1-HiBiT (knock-in at endogenous locus)
- protocolNotes: SF1 degradation induction in NCI-H295R SF-1-HiBiT cells (HiBiT DC50)
- Assay type: cell-based
- experimentalConditions: 24 hr, concentration that induces 50% degradation of SF-1
DC50 values for the compounds below.

Guide cases for DC50, answers given:
compound: COc1ccc([C@]2(CCN(Cc3ccc(C4=CCC(CN5CCN(C(=O)c6ccc7c(c6)CN(C6CCC(=O)NC6=O)C7=O)CC5)CC4)cc3)CC(C)(C)C(F)(F)F)CCOC(C)(C)C2)cc1 (stereo partly shown)
DC50: 8.7 nM

compound: COc1ccc([C@]2(CCN(Cc3ccc(C4=CC[C@H](CN5CCN(C(=O)c6ccc7c8c6NCCn8c(=O)n7C6CCC(=O)NC6=O)CC5)CC4)cc3)CC(C)(C)C(F)(F)F)CCOC(C)(C)C2)cc1 (stereo partly shown)
DC50: 7.3 nM

compound: COc1ccc(C2(CCN(Cc3ccc(OC4CCN(CC(=O)Nc5cccc6c5n(C)c(=O)n6C5CCC(=O)NC5=O)CC4)cc3)CC(C)(C)C(F)(F)F)CCC(F)(F)CC2)cc1 (stereo not shown)
DC50: 29 nM

Turning now to a further compound:
-- ask Record request: DC50 value, item `COc1ccc([C@]2(CCN(Cc3ccc(C4=CC[C@H](CN5CCN(C(=O)c6ccc7c(c6)n(C)c(=O)n7[C@@H]6CCC(=O)NC6=O)CC5)CC4)cc3)CC(C)(C)C(F)(F)F)CCOC(C)(C)C2)cc1`
-- reply 5.4 nM

###

- testedSystem: SF-1 (Homo sapiens, UniProt Q13285)
- Construct: NCI-H295R SF-1-HiBiT cells with HiBiT tag knocked in at the endogenous SF1 locus; host or cells: NCI-H295R SF-1-HiBiT (knock-in at endogenous locus)
- protocolNotes: SF1 degradation induction in NCI-H295R SF-1-HiBiT cells (HiBiT DC50)
- Type: cell-based
- experimentalConditions: 24 hr, concentration that induces 50% degradation of SF-1
propertyMeasured: DC50

Guide cases for DC50, answers given:
molecule: COc1ccc([C@]2(CCN(Cc3ccc(C4=CC[C@H](CN5CCN(C(=O)c6ccc7c8c6OCCn8c(=O)n7C6CCC(=O)NC6=O)CC5)CC4)cc3)CC(C)(C)C(F)(F)F)CCOC(C)(C)C2)cc1 (stereo partly drawn)
testedSystem: SF-1 (Homo sapiens, UniProt Q13285)
result: 18 nM

molecule: COc1ccc([C@]2(CCN(Cc3ccc(OC4CC5(CCN(CC(=O)Nc6ccc7c(c6)CN(C6CCC(=O)NC6=O)C7=O)CC5)C4)cc3)CC(C)(C)C(F)(F)F)CCOC(C)(C)C2)cc1 (stereo partly drawn)
testedSystem: SF-1 (Homo sapiens, UniProt Q13285)
result: 6.9 nM

Turning now to a further molecule:
-- ask Record request: DC50 value, item COc1ccc([C@]2(CCN(Cc3ccc(C4=CC[C@H](C(=O)N5C6COCC5CC(Nc5ccc7c8c5CCCn8c(=O)n7C5CCC(=O)NC5=O)C6)CC4)c(F)c3)CC(C)(C)C(F)(F)F)CCOC(C)(C)C2)cc1 (stereo partly drawn)
-- reply 4.9 nM
